Ref: patent US20130136743A1

Recorded measurements of % of lysis of ASC1 cells (ADCC with NK cells, LDH release) at 5 ng/ml antibody, one per entry
Target: T1, AMHRII receptor expressed on cells (cov434-AMHRII, Asc 1, META 2815) (human, UniProt Q16671 18-573)
T1 sequence (looked up): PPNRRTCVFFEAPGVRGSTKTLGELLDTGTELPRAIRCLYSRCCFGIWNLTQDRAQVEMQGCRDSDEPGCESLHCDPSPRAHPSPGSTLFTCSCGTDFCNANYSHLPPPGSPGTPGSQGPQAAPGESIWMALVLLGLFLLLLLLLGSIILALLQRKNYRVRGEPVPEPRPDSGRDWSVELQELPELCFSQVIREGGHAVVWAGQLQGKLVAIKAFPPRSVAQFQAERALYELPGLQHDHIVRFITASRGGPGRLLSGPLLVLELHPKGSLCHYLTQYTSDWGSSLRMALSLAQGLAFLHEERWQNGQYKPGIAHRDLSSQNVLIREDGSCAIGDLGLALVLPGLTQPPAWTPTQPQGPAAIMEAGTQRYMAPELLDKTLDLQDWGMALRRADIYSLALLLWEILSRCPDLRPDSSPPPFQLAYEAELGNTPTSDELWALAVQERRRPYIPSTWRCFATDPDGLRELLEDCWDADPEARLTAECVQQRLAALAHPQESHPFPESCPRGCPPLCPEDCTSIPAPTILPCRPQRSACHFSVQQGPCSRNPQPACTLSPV
Assay: cell-based or functional assay
Enter the number, and then the unit.

Use the examples below as a reference point.
mutated humanized 12G4 antibody 6B-78 produced in YB2/0 (antibody, human IgG1, kappa, V domains shown, Chains without leader; Mutation VL-E184K; also called 6B_78 YB2/0; R901 6B78) VH: QVQLVQSGAEVKKPGASVKVSCKASGYTFTSYHIHWVRQAPGQRLEWMGWIYPGDDSTKYSQKFQGRVTITRDTSASTAYMELSSLRSEDTAVYYCTRGDRFAYWGQGTLVTVSS VL: DIQMTQSPSTLSASVGDRVTITCRASSSVRYIAWYQQKPGKAPKLLIYSTSSLKSGVPSRFSGSGSGTEFTLTISSLQPDDFATYYCLQWSSYPWTFGGGTKVEIKR | 28%
mutated humanized 12G4 antibody 3C-23 produced in YB2/0 (antibody, human IgG1, kappa, V domains shown, Chains without leader; Mutations VH-Q3R, VL-I177T/S179P; also called 3C_23 YB2/0; R901 3C23) VH: QVRLVQSGAEVKKPGASVKVSCKASGYTFTSYHIHWVRQAPGQRLEWMGWIYPGDDSTKYSQKFQGRVTITRDTSASTAYMELSSLRSEDTAVYYCTRGDRFAYWGQGTLVTVSS VL: DIQMTQSPSTLSASVGDRVTITCRASSSVRYIAWYQQKPGKAPKLLTYPTSSLESGVPSRFSGSGSGTEFTLTISSLQPDDFATYYCLQWSSYPWTFGGGTKVEIKR | 35%
unmutated humanized 12G4 monoclonal antibody (antibody, human IgG1, kappa, V domains shown, Variable regions without leader joined to the constant regions; also called huLFB112; 632 07 107 Anti AMHRII hum 1st) VH: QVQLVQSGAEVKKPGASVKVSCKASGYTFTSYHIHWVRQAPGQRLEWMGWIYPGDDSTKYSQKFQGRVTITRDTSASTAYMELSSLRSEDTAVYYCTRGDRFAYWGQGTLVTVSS VL: DIQMTQSPSTLSASVGDRVTITCRASSSVRYIAWYQQKPGKAPKLLIYSTSSLESGVPSRFSGSGSGTEFTLTISSLQPDDFATYYCLQWSSYPWTFGGGTKVEIKR | 7%

Ask: Indicate its recorded % of lysis of ASC1 cells (ADCC with NK cells, LDH release) at 5 ng/ml antibody; the binder in question is mutated humanized 12G4 antibody 3C-23K produced in YB2/0 (antibody, human IgG1, kappa, V domains shown, Chains without leader; also called 3C_23K YB2/0; 3C-23K-YB2/0) VH: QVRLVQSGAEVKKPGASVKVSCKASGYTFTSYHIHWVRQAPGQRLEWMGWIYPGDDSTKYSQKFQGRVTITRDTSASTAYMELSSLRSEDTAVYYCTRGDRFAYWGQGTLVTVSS VL: DIQMTQSPSTLSASVGDRVTITCRASSSVRYIAWYQQKPGKAPKLLTYPTSSLKSGVPSRFSGSGSGTEFTLTISSLQPDDFATYYCLQWSSYPWTFGGGTKVEIKR
Result: 51%
